# MEASURED ON: human GPR84 receptor (Homo sapiens)
# PROTOCOL: Gαi biosensor BRET assay (GPR84 antagonism vs agonist ZQ-16)
# ASSAY CONDITIONS: Gαi biosensor BRET assay, HEK293 cells, 200 nmol/L agonist ZQ-16
PARAMETER: IC50

1. Cc1cc(OCC(=O)N2CCN(C)CC2)cc(=O)n1[C@H](C)c1ccc(C#CC2CC2)cc1; ≤ 300 nM
2. Cc1cc(OCC(=O)N(C)C)cc(=O)n1[C@H](C)c1ccc(C#CC2CC2(F)F)c(F)c1 (single isomer, unassigned) [Compound I-83]; ≤ 300 nM
3. Cc1cc(OCC(=O)N2CC3(COC3)C2)cc(=O)n1[C@H](C)c1ccc(C#CC2CC2)cc1; ≤ 300 nM
4. Cc1nc(OCC(=O)N(C)C)cc(=O)n1C(C)c1ccc(C#CC2CC2)cc1 (centres unmarked); ≤ 300 nM
5. Cc1cc(OCC(=O)N2CC[C@@H](C(=O)O)C2)cc(=O)n1[C@H](C)c1ccc(C#CC2CC2)cc1; ≤ 300 nM
6. Cc1cc(OCC(=O)N(C)C)cc(=O)n1[C@H](C)c1ccc(C#CC2CC2(F)F)c(F)c1 (some centres unmarked) [Compound I-64]; ≤ 300 nM
7. Cc1cc(OCC(=O)N2CCC[C@@H]2C#N)cc(=O)n1[C@H](C)c1ccc(C#CC2CC2)cc1; 300 to 1000 nM
8. Cc1cc(OCC(=O)N(C)C)cc(=O)n1[C@H](C)c1ccc(C#CC2CC2)c(Cl)c1; ≤ 300 nM
9. Cc1cc(OCC(=O)N2CCC2)cc(=O)n1[C@H](C)c1ccc(C#CC2CC2)c(F)c1; ≤ 300 nM
10. Cc1cc(OCC(=O)N2CC[C@H]2C(=O)O)cc(=O)n1[C@H](C)c1ccc(C#CC2CC2)cc1; 1000 to 3000 nM
11. Cc1nc(OCC(=O)N2CC[C@H](C(=O)O)C2)cc(=O)n1[C@H](C)c1ccc(C#CC2CC2)cc1; 1000 to 3000 nM
12. Cc1cc(OCC(=O)N2CCC[C@@H]2C(=O)O)cc(=O)n1[C@H](C)c1ccc(C#CC2CC2)cc1; 300 to 1000 nM
13. CCc1cc([C@@H](C)n2c(C)cc(OCC(=O)N(C)C)cc2=O)ccc1C#CC1CC1; ≤ 300 nM
14. Cc1cc(OCC(=O)N2CC(F)(F)C2)cc(=O)n1[C@H](C)c1ccc(C#CC2CC2)c(F)c1; 300 to 1000 nM
15. Cc1cc(OCC(=O)N2CCC3(CC3)C2)cc(=O)n1[C@H](C)c1ccc(C#CC2CC2)cc1; ≤ 300 nM
16. CCN(C)C(=O)COc1cc(C)n([C@H](C)c2ccc(C#CC3CC3)cc2)c(=O)c1; ≤ 300 nM
17. Cc1cc(OCC(=O)N2CC(O)C2)cc(=O)n1[C@H](C)c1ccc(C#CC2CC2)cc1; ≤ 300 nM

---

# MEASURED ON: human GPR84 receptor (Homo sapiens, UniProt Q9NQS5)
# Sequence (Q9NQS5 whole entry): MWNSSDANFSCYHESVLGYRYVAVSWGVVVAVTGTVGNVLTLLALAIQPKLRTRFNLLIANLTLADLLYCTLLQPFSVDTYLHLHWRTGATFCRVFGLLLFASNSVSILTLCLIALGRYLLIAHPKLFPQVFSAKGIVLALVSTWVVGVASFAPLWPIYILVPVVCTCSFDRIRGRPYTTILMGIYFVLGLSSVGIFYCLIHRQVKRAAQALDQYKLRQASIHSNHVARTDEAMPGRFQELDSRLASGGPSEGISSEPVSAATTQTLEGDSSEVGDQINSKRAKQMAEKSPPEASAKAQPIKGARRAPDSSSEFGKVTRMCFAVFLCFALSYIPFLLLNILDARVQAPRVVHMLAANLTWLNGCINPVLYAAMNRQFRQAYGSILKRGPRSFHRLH
# PROTOCOL: Gαi biosensor BRET assay (GPR84 antagonism vs agonist ZQ-16)
# ASSAY CONDITIONS: Gαi biosensor BRET assay, HEK293 cells, 200 nmol/L agonist ZQ-16
pIC50: −log10 of the molar value.
PARAMETER: pIC50

1) COCC1CN(C(=O)COc2cc(C)n([C@H](C)c3ccc(C#CC4CC4)cc3)c(=O)c2)C1; ≥ 6.52
2) Cc1cc(OCC(=O)C(C)(C)C)cc(=O)n1[C@H](C)c1ccc(C#CC2CC2)cc1; 6.00 to 6.52
3) Cc1cc(OCC(=O)N2CC3(CCO3)C2)cc(=O)n1[C@H](C)c1ccc(C#CC2CC2)cc1; ≥ 6.52
4) Cc1cc(OCC(=O)N2CCC2)cc(=O)n1[C@H](C)c1ccc(C#CC2CC2)cc1; ≥ 6.52
5) Cc1cc(OCC(=O)N2C[C@@H](O)[C@H](O)C2)cc(=O)n1[C@H](C)c1ccc(C#CC2CC2)cc1; ≥ 6.52
6) Cc1cc(OCC(=O)N2CCC[C@H]2C(F)(F)F)cc(=O)n1[C@H](C)c1ccc(C#CC2CC2)cc1; 6.00 to 6.52
7) Cc1nnc(COc2cc(C)n([C@H](C)c3ccc(C#CC4CC4)c(F)c3)c(=O)c2)o1; ≥ 6.52
8) Cc1cc(OCC(=O)NC2CCOCC2)cc(=O)n1[C@H](C)c1ccc(C#CC2CC2)cc1; 6.00 to 6.52
